Measured Target: T1, rabbit serum albumin (rabbit, UniProt P49065 25-608)
T1 construct: also called Rabbit SA; BuSA
T1 sequence (P49065 25-608 limits assumed): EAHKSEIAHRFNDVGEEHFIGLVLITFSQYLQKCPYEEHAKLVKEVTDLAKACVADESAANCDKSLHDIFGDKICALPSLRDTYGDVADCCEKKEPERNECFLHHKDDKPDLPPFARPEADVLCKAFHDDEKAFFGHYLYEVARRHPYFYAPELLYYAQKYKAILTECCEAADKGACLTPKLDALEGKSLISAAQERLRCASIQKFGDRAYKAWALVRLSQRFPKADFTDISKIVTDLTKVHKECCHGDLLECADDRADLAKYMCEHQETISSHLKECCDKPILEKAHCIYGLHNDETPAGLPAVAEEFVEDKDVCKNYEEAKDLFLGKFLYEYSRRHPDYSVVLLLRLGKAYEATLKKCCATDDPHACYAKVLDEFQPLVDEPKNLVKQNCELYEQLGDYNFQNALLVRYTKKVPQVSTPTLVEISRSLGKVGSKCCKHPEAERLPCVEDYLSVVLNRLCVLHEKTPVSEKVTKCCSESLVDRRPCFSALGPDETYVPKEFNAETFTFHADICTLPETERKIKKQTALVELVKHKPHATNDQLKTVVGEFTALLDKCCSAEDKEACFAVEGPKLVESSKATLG
Procedure Text: peptide competition; head prints RSA, read as rabbit
Positions of bridges follow the written chain, without caps; N, C: chain ends. No end group written: not given here.

Binder | Unit Spec | IC50
DICLPRWGCLW-NH2 (not fully specified (bridges); cysteine pairing not given here, free peptide) [SA04] | µM | 8.54
Ac-IEDICLPRWGCLWED-NH2 (not fully specified (bridges); printed as Ac IEDICLPRWGCLWEDNH2; cysteine pairing not given here, free peptide) [SA24] | µM | 1.38
ICLPRWGCLW-NH2 (not fully specified (bridges); printed as ICLPRWGCLWNH2; cysteine pairing not given here, free peptide) [SA18] | µM | 125
Ac-ICLPRWGCLWED-NH2 (disulfide 2-8 (inferred), free peptide) [SA27] | µM | 86.7
DICLPRWGCL-NH2 (not fully specified (bridges); printed as DICLPRWGCLNH2; cysteine pairing not given here, free peptide) [SA19] | µM | 24.5
